Hello, the source for this data is paper PMC4135049, in case you need it.

Experiment: In vivo disposition after oral administration to rats
Conditions: rat, serum, 40 mg/kg, Serum 1-day, 40 mg/kg oral, Rat 1
observation-type: concentration at 1 day (ng/mL)

molecule="COc1cc(/C=C/c2ccc(N)cc2)cc(OC)c1 [Compound 5, (E)-4-(3,5-dimethoxystyryl)aniline]" observation_type="concentration at 1 day" numeric_readout=2990

====

Test: Caco-2 cell monolayer permeability
Settings: human, Caco-2, pH 7.4, Papp(AP → BL), initial conc. 50 μM
observation-type: Papp A→B at 60 min, 50 μM (×10⁻⁶ cm/s)

molecule="COc1cc(/C=C/c2ccc(N)cc2)cc(OC)c1 [Compound 5, (E)-4-(3,5-dimethoxystyryl)aniline]" unit_spec="×10⁻⁶ cm/s" numeric_readout=8.6

====

Test: In vivo disposition after oral administration to rats
Conditions: rat, serum, 40 mg/kg, Serum 1-day, 40 mg/kg oral, Total, N=9
observation-type: concentration at 1 day (ng/mL)

molecule="COc1cc(/C=C/c2ccc(N)cc2)cc(OC)c1 [Compound 5, (E)-4-(3,5-dimethoxystyryl)aniline]" numeric_readout=3210

====

Assay: DPPH radical scavenging assay
Settings: read-out: DPPH IC50
observation-type: IC50 (µM)

compound="Oc1ccc(/C=C/c2cc(O)cc(O)c2)cc1 [Compound 1, 3,5,4′-trihydroxy-trans-stilbene]" numeric_readout=78

====

Below: a set of entries, each annotated with reported IC50.
Target: COX-1 (Homo sapiens, UniProt P23219)
Sequence (P23219 24-599): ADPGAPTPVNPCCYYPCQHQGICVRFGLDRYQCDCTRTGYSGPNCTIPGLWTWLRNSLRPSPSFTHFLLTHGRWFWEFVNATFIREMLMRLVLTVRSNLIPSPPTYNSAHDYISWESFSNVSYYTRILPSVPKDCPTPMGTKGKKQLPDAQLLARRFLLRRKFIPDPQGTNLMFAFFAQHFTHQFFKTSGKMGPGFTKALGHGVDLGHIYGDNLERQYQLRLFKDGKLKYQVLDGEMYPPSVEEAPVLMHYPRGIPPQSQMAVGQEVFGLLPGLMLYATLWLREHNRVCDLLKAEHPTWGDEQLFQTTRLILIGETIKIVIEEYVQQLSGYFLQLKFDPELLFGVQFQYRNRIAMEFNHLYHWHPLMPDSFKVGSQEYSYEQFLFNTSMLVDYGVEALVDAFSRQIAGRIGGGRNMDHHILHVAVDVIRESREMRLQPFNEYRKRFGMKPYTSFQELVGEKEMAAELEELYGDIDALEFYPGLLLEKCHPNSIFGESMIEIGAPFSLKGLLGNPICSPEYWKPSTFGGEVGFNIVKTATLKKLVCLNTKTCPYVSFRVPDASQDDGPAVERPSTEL
Experiment: COX-1 assay
Type: biochemical
observation-type: IC50

compound="COc1cc(/C=C/c2ccc(N)cc2)cc(OC)c1 [Compound 5, (E)-4-(3,5-dimethoxystyryl)aniline]" observation_type=IC50 result="760 nM"
compound="O=S(=O)(O)Oc1ccc(C=Cc2cc(O)cc(O)c2)cc1 [Compound 14, resveratrol 4′-sulfate]" observation_type=IC50 result="460 nM"

====

Assay: In vivo disposition after oral administration to rats
Conditions: rat, liver, 40 mg/kg, 40 mg/kg oral for three days, Total, N=9
observation-type: concentration at 24 h (ng/g)

molecule="COc1cc(/C=C/c2ccc(N)cc2)cc(OC)c1 [Compound 5, (E)-4-(3,5-dimethoxystyryl)aniline]" unit_spec=ng/g numeric_readout=6280

====

Assay: In vivo disposition after oral administration to rats
Details: rat, liver, 40 mg/kg, 40 mg/kg oral for three days, Rat 3
observation-type: concentration at 24 h

compound="COc1cc(/C=C/c2ccc(N)cc2)cc(OC)c1 [Compound 5, (E)-4-(3,5-dimethoxystyryl)aniline]" observation_type="concentration at 24 h" result="5610 ng/g"

====

Biological target: COX-1 (Homo sapiens)
Assay: COX-1 assay
Format: biochemical
Conditions: read-out: COX-1 IC50; NA = not active (IC50 >68 μM, Figure 1)
observation-type: IC50 (µM)

molecule="O=S(=O)(O)Oc1ccc(C=Cc2cc(O)cc(O)c2)cc1 [Compound 15]" system_under_test="COX-1 (Homo sapiens)" observation_type=IC50 numeric_readout=5
